As shown below, each of these molecules has a reported Her2 level value.
molecular target: Receptor tyrosine-protein kinase erbB-2 (Homo sapiens) (UniProt P04626); assay: reducers of endogenous Her2 protein level, primary screen, SKBR3 breast tumor cells, AlphaScreen, ATP viability (AID 461); conditions: 18-24 h, at 10 µM, active compounds read low;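 also: lower value means less Her2 protein in the cells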
Sequence (P04626 whole entry, looked up): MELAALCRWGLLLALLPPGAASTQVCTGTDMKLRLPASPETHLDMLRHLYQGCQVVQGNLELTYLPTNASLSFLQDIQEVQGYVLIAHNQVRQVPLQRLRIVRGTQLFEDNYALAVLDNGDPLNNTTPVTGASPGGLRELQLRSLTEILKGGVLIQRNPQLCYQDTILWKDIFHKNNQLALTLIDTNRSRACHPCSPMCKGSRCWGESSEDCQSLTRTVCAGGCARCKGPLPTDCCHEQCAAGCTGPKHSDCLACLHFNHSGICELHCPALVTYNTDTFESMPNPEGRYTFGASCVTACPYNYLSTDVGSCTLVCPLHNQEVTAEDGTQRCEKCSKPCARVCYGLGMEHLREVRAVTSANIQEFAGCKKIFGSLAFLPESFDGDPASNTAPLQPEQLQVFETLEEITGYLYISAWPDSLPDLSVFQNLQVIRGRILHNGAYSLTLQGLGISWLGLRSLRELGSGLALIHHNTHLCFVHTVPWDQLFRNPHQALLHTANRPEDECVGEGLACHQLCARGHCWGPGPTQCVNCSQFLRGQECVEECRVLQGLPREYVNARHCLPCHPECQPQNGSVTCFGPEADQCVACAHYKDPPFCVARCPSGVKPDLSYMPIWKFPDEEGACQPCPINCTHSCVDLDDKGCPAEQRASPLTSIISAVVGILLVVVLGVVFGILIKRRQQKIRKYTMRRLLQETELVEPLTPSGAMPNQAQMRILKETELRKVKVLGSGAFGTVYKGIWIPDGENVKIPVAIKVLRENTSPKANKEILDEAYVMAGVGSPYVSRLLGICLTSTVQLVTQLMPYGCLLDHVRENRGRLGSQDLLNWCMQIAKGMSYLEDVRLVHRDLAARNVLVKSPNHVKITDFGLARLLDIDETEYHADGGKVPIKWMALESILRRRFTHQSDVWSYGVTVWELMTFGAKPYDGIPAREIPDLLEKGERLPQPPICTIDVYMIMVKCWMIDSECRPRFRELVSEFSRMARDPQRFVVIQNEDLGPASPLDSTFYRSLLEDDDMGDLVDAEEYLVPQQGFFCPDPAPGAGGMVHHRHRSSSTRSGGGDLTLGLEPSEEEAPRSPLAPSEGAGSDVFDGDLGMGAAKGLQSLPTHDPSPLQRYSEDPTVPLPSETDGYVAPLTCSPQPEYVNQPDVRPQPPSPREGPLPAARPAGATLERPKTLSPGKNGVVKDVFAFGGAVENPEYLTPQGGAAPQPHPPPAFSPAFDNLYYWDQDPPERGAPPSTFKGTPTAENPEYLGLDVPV

MOLECULE: O=C1CC(c2ccc(S(=O)(=O)N3CCN(c4ccccc4)CC3)cc2)CN1 (stereo not drawn)
SUBJECT OF TEST: Receptor tyrosine-protein kinase erbB-2 (Homo sapiens) (UniProt P04626)
UNIT OF MEASURE: %
Her2 level: 90

MOLECULE: O=C(CN1CCN(c2cccc(Cl)c2)CC1)N1CCCC1
SUBJECT OF TEST: Receptor tyrosine-protein kinase erbB-2 (Homo sapiens) (UniProt P04626)
UNIT OF MEASURE: %
Her2 level: 102

MOLECULE: COc1cccc(S(=O)(=O)Nc2cccnc2)c1
SUBJECT OF TEST: Receptor tyrosine-protein kinase erbB-2 (Homo sapiens) (UniProt P04626)
UNIT OF MEASURE: %
Her2 level: 107

MOLECULE: CCOc1ccc(C(=O)N2CCN(C(=O)c3ccco3)CC2)cc1OCC
SUBJECT OF TEST: Receptor tyrosine-protein kinase erbB-2 (Homo sapiens) (UniProt P04626)
UNIT OF MEASURE: %
Her2 level: 85

MOLECULE: O=C1N=C(N2CCOCC2)CS1
SUBJECT OF TEST: Receptor tyrosine-protein kinase erbB-2 (Homo sapiens) (UniProt P04626)
UNIT OF MEASURE: %
Her2 level: 110

MOLECULE: COc1ccc(OC)c(Nc2cc(-c3ccccc3)nc(N)n2)c1
SUBJECT OF TEST: Receptor tyrosine-protein kinase erbB-2 (Homo sapiens) (UniProt P04626)
UNIT OF MEASURE: %
Her2 level: 69

MOLECULE: COC(=O)C1=C(C)OC(N)=C(C#N)C1c1c(C)nn(-c2ccccc2)c1Cl (stereo not drawn)
SUBJECT OF TEST: Receptor tyrosine-protein kinase erbB-2 (Homo sapiens) (UniProt P04626)
UNIT OF MEASURE: %
Her2 level: 118

MOLECULE: COC(=O)CN(c1ccc(C)c(Cl)c1)S(C)(=O)=O
SUBJECT OF TEST: Receptor tyrosine-protein kinase erbB-2 (Homo sapiens) (UniProt P04626)
UNIT OF MEASURE: %
Her2 level: 100

MOLECULE: COc1ccc(-n2c(=O)[nH]cc(C(=O)Nc3ccc(NC(C)=O)cc3)c2=O)cc1
SUBJECT OF TEST: Receptor tyrosine-protein kinase erbB-2 (Homo sapiens) (UniProt P04626)
UNIT OF MEASURE: %
Her2 level: 106

MOLECULE: COc1ccccc1N1CCN(C(=O)CCNS(=O)(=O)c2ccc3c(c2)CCC(=O)N3)CC1
SUBJECT OF TEST: Receptor tyrosine-protein kinase erbB-2 (Homo sapiens) (UniProt P04626)
UNIT OF MEASURE: %
Her2 level: 81.5

MOLECULE: c1cn(CC2(Cn3ccnc3)COC2)cn1
SUBJECT OF TEST: Receptor tyrosine-protein kinase erbB-2 (Homo sapiens) (UniProt P04626)
UNIT OF MEASURE: %
Her2 level: 70.5

MOLECULE: Cn1c(SCc2ccc3c(c2)OCO3)nnc1-c1ccccc1
SUBJECT OF TEST: Receptor tyrosine-protein kinase erbB-2 (Homo sapiens) (UniProt P04626)
UNIT OF MEASURE: %
Her2 level: 108

MOLECULE: COc1ccc(C2=Nn3c(nnc3-c3ccccc3)SC2)cc1OC
SUBJECT OF TEST: Receptor tyrosine-protein kinase erbB-2 (Homo sapiens) (UniProt P04626)
UNIT OF MEASURE: %
Her2 level: 101

MOLECULE: COc1ccc(OC)c(C(=O)c2nc3c(n2O)CCCCC3)c1
SUBJECT OF TEST: Receptor tyrosine-protein kinase erbB-2 (Homo sapiens) (UniProt P04626)
UNIT OF MEASURE: %
Her2 level: 122

MOLECULE: Cc1ccc(SCc2[nH]nc3c2C(c2ccc(C)o2)C(C#N)=C(N)O3)cc1 (stereo not drawn)
SUBJECT OF TEST: Receptor tyrosine-protein kinase erbB-2 (Homo sapiens) (UniProt P04626)
UNIT OF MEASURE: %
Her2 level: 88

MOLECULE: COc1cccc(-n2nnnc2SCC(=O)NCc2ccco2)c1
SUBJECT OF TEST: Receptor tyrosine-protein kinase erbB-2 (Homo sapiens) (UniProt P04626)
UNIT OF MEASURE: %
Her2 level: 92.5

MOLECULE: Cc1ccc2nsnc2c1S(=O)(=O)N(Cc1cc2cccc(C)c2[nH]c1=O)CC1CCCO1 (stereo not drawn)
SUBJECT OF TEST: Receptor tyrosine-protein kinase erbB-2 (Homo sapiens) (UniProt P04626)
UNIT OF MEASURE: %
Her2 level: 89

MOLECULE: CC(C)OC(=O)c1cc(=O)[nH]c2ccccc12
SUBJECT OF TEST: Receptor tyrosine-protein kinase erbB-2 (Homo sapiens) (UniProt P04626)
UNIT OF MEASURE: %
Her2 level: 79

MOLECULE: COc1ccc(OCCCC(=O)Nc2ccc3c(c2)OCCO3)cc1
SUBJECT OF TEST: Receptor tyrosine-protein kinase erbB-2 (Homo sapiens) (UniProt P04626)
UNIT OF MEASURE: %
Her2 level: 93.5

MOLECULE: CC1(C)CC(=O)c2cnc(NCc3ccco3)nc2C1
SUBJECT OF TEST: Receptor tyrosine-protein kinase erbB-2 (Homo sapiens) (UniProt P04626)
UNIT OF MEASURE: %
Her2 level: 107

MOLECULE: CCN(CC)C(=O)CSc1nc2ccccc2c(=O)n1CCC(=O)NCc1ccc(F)cc1
SUBJECT OF TEST: Receptor tyrosine-protein kinase erbB-2 (Homo sapiens) (UniProt P04626)
UNIT OF MEASURE: %
Her2 level: 105

MOLECULE: Cc1ccc(NC(=O)CCC(=O)O)cc1F
SUBJECT OF TEST: Receptor tyrosine-protein kinase erbB-2 (Homo sapiens) (UniProt P04626)
UNIT OF MEASURE: %
Her2 level: 82.5

MOLECULE: Cn1c(SCC(=O)N2CCOCC2)nnc1-c1cnccn1
SUBJECT OF TEST: Receptor tyrosine-protein kinase erbB-2 (Homo sapiens) (UniProt P04626)
UNIT OF MEASURE: %
Her2 level: 116

MOLECULE: COc1ccccc1CNS(=O)(=O)c1ccc(NC(C)=O)cc1
SUBJECT OF TEST: Receptor tyrosine-protein kinase erbB-2 (Homo sapiens) (UniProt P04626)
UNIT OF MEASURE: %
Her2 level: 84

MOLECULE: Cc1ccc(-c2noc(CCC(=O)N3CCN(c4cccc(C(F)(F)F)c4)CC3)n2)cc1
SUBJECT OF TEST: Receptor tyrosine-protein kinase erbB-2 (Homo sapiens) (UniProt P04626)
UNIT OF MEASURE: %
Her2 level: 91

MOLECULE: Cc1cc(=O)n(C)c(=O)n1CCCNc1ccccc1
SUBJECT OF TEST: Receptor tyrosine-protein kinase erbB-2 (Homo sapiens) (UniProt P04626)
UNIT OF MEASURE: %
Her2 level: 115

MOLECULE: CCCNS(=O)(=O)c1ccc(OCC(=O)NCc2ccco2)cc1
SUBJECT OF TEST: Receptor tyrosine-protein kinase erbB-2 (Homo sapiens) (UniProt P04626)
UNIT OF MEASURE: %
Her2 level: 120

MOLECULE: CC(=O)OCC1OC(c2ccccc2)C(OC(C)=O)C(OC(C)=O)C1OC(C)=O (stereo not drawn)
SUBJECT OF TEST: Receptor tyrosine-protein kinase erbB-2 (Homo sapiens) (UniProt P04626)
UNIT OF MEASURE: %
Her2 level: 94.5

MOLECULE: O=C(CC(C(=O)N1CCc2ccccc21)n1ccnc1)NCc1cccnc1 (stereo not drawn)
SUBJECT OF TEST: Receptor tyrosine-protein kinase erbB-2 (Homo sapiens) (UniProt P04626)
UNIT OF MEASURE: %
Her2 level: 100

MOLECULE: CCOC(=O)C1CCN(C(=O)C2CCN(S(=O)(=O)c3cc(Cl)ccc3Cl)CC2)CC1
SUBJECT OF TEST: Receptor tyrosine-protein kinase erbB-2 (Homo sapiens) (UniProt P04626)
UNIT OF MEASURE: %
Her2 level: 91

MOLECULE: CCC1(NC(C)=O)CC2CC1CC2NC(C)=O (stereo not drawn)
SUBJECT OF TEST: Receptor tyrosine-protein kinase erbB-2 (Homo sapiens) (UniProt P04626)
UNIT OF MEASURE: %
Her2 level: 100

MOLECULE: O=C(COc1ccccc1)Nc1nc2ccccc2[nH]1
SUBJECT OF TEST: Receptor tyrosine-protein kinase erbB-2 (Homo sapiens) (UniProt P04626)
UNIT OF MEASURE: %
Her2 level: 93

MOLECULE: COC(=O)C1=C(C)NC(=O)C1(NC(=O)CN1CCCC1=O)C(F)(F)F (stereo not drawn)
SUBJECT OF TEST: Receptor tyrosine-protein kinase erbB-2 (Homo sapiens) (UniProt P04626)
UNIT OF MEASURE: %
Her2 level: 91

MOLECULE: C=CCOc1nc2c(c(=O)n(C)c(=O)n2C)n1Cc1c(Cl)cccc1Cl
SUBJECT OF TEST: Receptor tyrosine-protein kinase erbB-2 (Homo sapiens) (UniProt P04626)
UNIT OF MEASURE: %
Her2 level: 83

MOLECULE: O=C(NCCc1c[nH]c2ccccc12)c1ccc(S(=O)(=O)NCc2ccco2)cc1
SUBJECT OF TEST: Receptor tyrosine-protein kinase erbB-2 (Homo sapiens) (UniProt P04626)
UNIT OF MEASURE: %
Her2 level: 83.5

MOLECULE: CN1/C(=C\C(=O)C(F)F)C(C)(C)c2ccccc21
SUBJECT OF TEST: Receptor tyrosine-protein kinase erbB-2 (Homo sapiens) (UniProt P04626)
UNIT OF MEASURE: %
Her2 level: 100

MOLECULE: Cc1cc(=O)oc2cc(OCC(=O)OCc3nnc(-c4ccccc4)o3)ccc12
SUBJECT OF TEST: Receptor tyrosine-protein kinase erbB-2 (Homo sapiens) (UniProt P04626)
UNIT OF MEASURE: %
Her2 level: 92.5

MOLECULE: C=CCn1c(-c2ccc(OC)cc2)nc2ccccc21
SUBJECT OF TEST: Receptor tyrosine-protein kinase erbB-2 (Homo sapiens) (UniProt P04626)
UNIT OF MEASURE: %
Her2 level: 99.5
